B1: Pistol ribozyme (parent)
chain: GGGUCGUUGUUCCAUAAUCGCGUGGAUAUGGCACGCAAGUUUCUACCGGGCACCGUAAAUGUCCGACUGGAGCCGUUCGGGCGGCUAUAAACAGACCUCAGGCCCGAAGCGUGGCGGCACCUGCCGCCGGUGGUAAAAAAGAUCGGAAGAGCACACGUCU

# Variants of: B1
# Experimental protocol: aptazyme ON/OFF ratio, guanine; higher = stronger switching; co-transcriptional cleavage with and without guanine
Property: aptazyme ON/OFF ratio

[
  {
    "Mutant id": "U7C C12G C13G",
    "Property": "aptazyme ON/OFF ratio",
    "Recorded number": 1.17
  },
  {
    "Mutant id": "U7C U8C G9C C12U C13A",
    "Property": "aptazyme ON/OFF ratio",
    "Recorded number": 1.16
  },
  {
    "Mutant id": "U7G U8C G9A U10C U11C C12A C13G",
    "Property": "aptazyme ON/OFF ratio",
    "Recorded number": 1.28
  },
  {
    "Mutant id": "U7G U8C G9C U10C C12A C13U",
    "Property": "aptazyme ON/OFF ratio",
    "Recorded number": 1.04
  },
  {
    "Mutant id": "U7A U8G U10C U11C C12U C13G",
    "Property": "aptazyme ON/OFF ratio",
    "Recorded number": 1.18
  },
  {
    "Mutant id": "U7A U8C G9U U10C C12U",
    "Property": "aptazyme ON/OFF ratio",
    "Recorded number": 1.08
  },
  {
    "Mutant id": "U7G U8G G9U U10A U11C C13G",
    "Property": "aptazyme ON/OFF ratio",
    "Recorded number": 1.09
  }
]
